# targetOfAssay: T1, hK1 (human tissue kallikrein 1), recombinant (human, UniProt P06870 25-262)
# T1 construct: Expressed in P. pastoris from KLK1 cDNA and purified; enzymatically active; also called KLK1; Recombinant (Pichia) Kallikrein
# assayNotes: SPR
measuredQuantity: koff (s⁻¹)
# output: bare number, implied unit s⁻¹

Field: example entries. Status: answers known.
M0102-G11 (Fab, V domains shown) VH: EVQLLESGGGLVQPGGSLRLSCAASGFTFSRYMMEWVRQAPGKGLEWVSGISPSGGTTKYADSVKGRFTISRDNSKNTLYLQMNSLRAEDTAVYYCTRGGYNNYYYALDVWGQGTTVTVSS VL: DIQMTQSPDTLSLSPGERATLSCRASESVSSSYFAWYQQKRGQAPRLLIYGASRRVTGIPDRFSGSGSGTDFTLTITRLEPEDFAVYYCQQYGGSPRSFGQGTKVEIKR = 0.0116
M0104-A12 (Fab, V domains shown) VH: EVQLLESGGGLVQPGGSLRLSCAASGFTFSHYNMGWVRQAPGKGLEWVSRIGSSGGKTAYADSVKGRFTISRDNSKNTLYLQMNSLRAEDTAVYYCAKTNYDFWSGYLPNPNPYPLDYWGQGTLVTVSS VL: DIQMTQSPSSLSASVGDRVTITCRASQSIGASLNWYQQKPQKAPKLLIYTASNLQSGVPSRFSGSGSGTDFTLTISSLLPEDFATYYCQQNYRGRTFGQGTKLEIKR = 0.00246

Attention now turns to another entry.
QUERY: Looking for the measured koff of M0116-A08 (Fab, V domains shown) VH: EVQLLESGGGLVQPGGSLRLSCAASGFTFSYYMMGWVRQAPGKGLEWVSSIYTSGGYTKYADSVKGRFTISRDNSKNTLYLQMNSLRAEDTAVYYCARASIYYGMDVWGQGTTVTVSS VL: DIQMTQSPGTLSLSPGERATLSCRASQSVSNSYLAWYQQRPGQAPRLLIYGASSRATGIPDRFSGSGSGTEFTLTISRLEPEDFAVYYCQQFGSSTGYTFGQGTKLELKR , can you help?
RESULT: 0.00994
